System under test: EcThrRS_WT (Escherichia coli)
Sequence (P0A8M3 242-642): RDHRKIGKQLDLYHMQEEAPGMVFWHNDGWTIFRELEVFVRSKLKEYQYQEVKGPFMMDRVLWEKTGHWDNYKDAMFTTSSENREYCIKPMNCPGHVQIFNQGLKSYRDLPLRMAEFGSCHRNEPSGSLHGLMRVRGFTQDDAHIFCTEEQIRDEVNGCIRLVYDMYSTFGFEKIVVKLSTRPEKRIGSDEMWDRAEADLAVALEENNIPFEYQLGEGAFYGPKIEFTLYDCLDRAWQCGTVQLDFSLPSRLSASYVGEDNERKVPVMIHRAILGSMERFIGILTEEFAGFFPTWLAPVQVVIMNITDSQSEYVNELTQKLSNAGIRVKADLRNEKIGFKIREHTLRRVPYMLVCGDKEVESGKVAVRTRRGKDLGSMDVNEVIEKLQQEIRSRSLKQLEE
Value type: IC50

Consider the compound C[C@@H]1C[C@H](C)C[C@H](C)[C@@H](O)CC(=O)O[C@H]([C@@H]2CCC[C@H]2C(=O)O)C/C=C/C=C(/C#N)[C@H](O)[C@@H](C)C1 and give its measured IC50.
559 nM

###

Test system: in vitro translation system of Kluyveromyces marxianus
Assay type: biochemical
Test parameters: K. marxianus extract, rebuttal letter
pIC50: −log10 of the molar value.
Value type: pIC50

Need pIC50 of O=C(N[C@@H]1C(=O)O[C@@H]1Cc1ccc([N+](=O)[O-])cc1)c1cccc(O)c1O , thanks.
~5.05
